- Experiment: PAMPA (parallel artificial membrane permeability assay)
- Format: in vitro ADME
- Particulars: PAMPA; membrane permeation rate (Pe); 50 mM MOPSO buffer pH 6.5 with 5.0% glycocholic acid, 37° C., 18 hours; read-out: iPAMPA Pe
Starred links: 1 amine or outer side, 2 acyl side, 3 side chain; linkers in the order of their positions; H or OH if unused. Positions of bridges follow the written chain, without caps; N, C: chain ends. Non-standard residues stand in square brackets, D forms with d. Residues, ends and D or L forms follow the SMILES beside them. *: point of attachment. Phe(3-(CH2)4CO) = O=C([C@H](Cc1cccc(CCCCC(=O)[*:3])c1)N[*:1])[*:2]; NMeF = CN[C@@H](Cc1ccccc1)C(=O)O; NMeGABA = CN(CCCC(=O)[*:2])[*:1]; NMeI = CC[C@H](C)[C@H](NC)C(=O)O; NMeβAla = CN(CCC(=O)[*:2])[*:1]; NMeL = CN[C@@H](CC(C)C)C(=O)O; NMeV = CN[C@H](C(=O)O)C(C)C; NMeA = CN[C@@H](C)C(=O)O; Piperidide = C1CCN(*)CC1; dNMeA = CN[C@H](C)C(=O)O; Sar = CNCC(=O)O; tBu = CC(C)(C)*
Measured Property: Papp at 18 hours, 50 µM (×10⁻⁶ cm/s)
Write it as a number; the unit ×10⁻⁶ cm/s goes unstated.

Please review the following examples before continuing.
CC[C@H](C)[C@@H]1NC(=O)[C@H](Cc2ccccc2)NC(=O)[C@@H]2CCCN2C(=O)[C@H](CC(C)C)N(C)C(=O)[C@H](Cc2ccccc2)NC(=O)[C@H](CC(C)C)NC(=O)[C@H]([C@@H](C)O)NC(=O)[C@H](C)N(C)C(=O)[C@H](C(C)C)NC(=O)CCCCc2cccc(c2)C[C@@H](C(=O)N2CCCCC2)NC(=O)[C@H](CC(C)C)NC(=O)CN(C)C1=O [DP-900] (V[NMeA]TLF[NMeL]PFI[Sar]L[Phe(3-(CH2)4CO)]-Piperidide; lactam N-12); 1.3
CC(C)C[C@H]1C(=O)N(C)[C@@H](C)C(=O)N(C)[C@@H](C(C)C)C(=O)N[C@@H](C)C(=O)N[C@H](C(=O)N(C)[C@@H](Cc2ccccc2)C(=O)N(C)[C@@H](Cc2ccccc2)C(=O)N[C@@H](C)C(=O)N2CCCCC2)CC(=O)N(C)[C@H](C)C(=O)N(C)CC(=O)N[C@@H]([C@@H](C)O)C(=O)N(C)[C@@H](C)C(=O)N[C@@H](Cc2ccccc2)C(=O)N1C [DP-507] ([dNMeA][Sar]T[NMeA]F[NMeL][NMeA][NMeV]AD[NMeF][NMeF]A-Piperidide; lactam N-10); 11
CC[C@H](C)[C@@H]1NC(=O)CCCN(C)C(=O)C[C@@H](C(=O)N2CCCCC2)NC(=O)[C@H](Cc2ccccc2)N(C)C(=O)[C@H](CC(C)C)N(C)C(=O)CN(C)C(=O)[C@H]([C@@H](C)O)NC(=O)[C@H](C)N(C)C(=O)[C@H](C(C)C)N(C)C(=O)[C@H](C)NC(=O)[C@H](CC(C)C)N(C)C(=O)[C@H](Cc2ccccc2)N(C)C1=O [DP-468] ([NMeGABA]I[NMeF][NMeL]A[NMeV][NMeA]T[Sar][NMeL][NMeF]D-Piperidide; lactam N-12); 27

# Papp at 18 hours, 50 µM (compound: CC[C@H](C)[C@H]1C(=O)N(C)[C@@H](CC(C)C)C(=O)N[C@@H]([C@@H](C)O)C(=O)N[C@H](C(=O)N2CCCCC2)CC(=O)N[C@H](C(C)C)C(=O)N(C)[C@@H](C)C(=O)N(C)[C@@H](CC(C)C)C(=O)N(C)[C@@H](Cc2ccccc2)C(=O)N[C@@H](C)C(=O)N(C)[C@@H](CC(C)C)C(=O)N(C)[C@@H](Cc2ccccc2)C(=O)N1C [DP-234] ([dV][NMeA][NMeL][NMeF]A[NMeL][NMeF][NMeI][NMeL]TD-Piperidide; lactam N-11) ) is 2

Lookup result for CC[C@H](C)[C@@H]1NC(=O)[C@H](C)NC(=O)C[C@@H](C(=O)N2CCCCC2)NC(=O)[C@H](Cc2ccccc2)NC(=O)[C@H](C(C)C)N(C)C(=O)[C@H](CC(C)C)NC(=O)[C@H](C)N(C)C(=O)[C@H](Cc2ccccc2)N(C)C(=O)[C@H]([C@@H](C)O)NC(=O)CN(C)C(=O)[C@H](CC(C)C)N(C)C(=O)[C@@H]2CCCN2C1=O [DP-9] (AIP[NMeL][Sar]T[NMeF][NMeA]L[NMeV]FD-Piperidide; lactam N-12) ; measured Papp at 18 hours, 50 µM: 13

What the record says about CC[C@H](C)[C@@H]1NC(=O)[C@H](CC(C)C)N(C)C(=O)CN(C)C(=O)[C@H]([C@@H](C)O)NC(=O)[C@H](CC(C)C)N(C)C(=O)[C@H](Cc2ccccc2)N(C)C(=O)[C@H](C)N(C)C(=O)[C@@H](C)NC(=O)C[C@@H](C(=O)N(C)[C@@H](Cc2ccccc2)C(=O)N[C@@H](C)C(=O)N2CCCCC2)NC(=O)[C@H](C(C)C)N(C)C1=O [DP-290] ([dA][NMeA][NMeF][NMeL]T[Sar][NMeL]I[NMeV]D[NMeF]A-Piperidide; lactam N-10) : Papp at 18 hours, 50 µM is 19

compound CC[C@H](C)[C@@H]1NC(=O)[C@H](Cc2ccccc2)NC(=O)[C@H]([C@@H](C)O)NC(=O)CCN(C)C(=O)C[C@@H](C(=O)N2CCCCC2)NC(=O)[C@H](Cc2ccccc2)NC(=O)[C@H](Cc2ccccc2)NC(=O)CNC(=O)[C@H](CC(C)C)N(C)C(=O)[C@H](CC(C)C)NC1=O [DP-423] ([NMeβAla]TFIL[NMeL]GFFD-Piperidide; lactam N-10) , Papp at 18 hours, 50 µM observed: 15

Note to self: Papp at 18 hours, 50 µM recorded for CC(C)C[C@H]1C(=O)N[C@H](C(=O)N2CCCCC2)CC(=O)N(C)[C@@H](C)C(=O)N(C)[C@@H](Cc2ccccc2)C(=O)N(C)[C@@H](CC(C)C)C(=O)N[C@@H]([C@@H](C)O)C(=O)N(C)CC(=O)N[C@@H](COC(C)(C)C)C(=O)N1C [DP-697] ([NMeA][NMeF][NMeL]T[Sar]S(tBu)[NMeL]D-Piperidide; lactam N-8) was 35

So, CC[C@H](C)[C@H](NC(=O)[C@H](CC(C)C)N(C)C(=O)[C@@H]1CCCN1C(=O)[C@H](Cc1ccccc1)N(C)C(=O)[C@@H]1CC(=O)N[C@H](C(C)C)C(=O)N[C@@H](C)C(=O)N(C)[C@@H](Cc2ccccc2)C(=O)N(C)[C@@H](C)C(=O)N[C@@H](Cc2ccccc2)C(=O)N(C)[C@@H](CC(C)C)C(=O)N[C@@H]([C@@H](C)O)C(=O)N1)C(=O)N1CCCCC1 [DP-929] ([dV]A[NMeF][NMeA]F[NMeL]TD[NMeF]P[NMeL]I-Piperidide; lactam N-8) ? Its Papp at 18 hours, 50 µM was 12
